- Method Description: melting temperature; fluorescence melt of hairpins on a sequencing array, two-state fit, raised by 9.35 °C to match UV melts
- Study Conditions: sodium 0.088 M
I'd appreciate it if you marked entries 1 (yes) when Tm is lower than 50 °C and 0 (no) when it is not.

Chain | Category Label
CGCCCCCGGAAACGGGCG (((..(((....)))))) | 0 (no)
GGACACGAAAGTGACTCC ((((((....)))..))) | 1 (yes)
GGGCTTGGAAACGAGCTC (.(((.(....).))).) | 1 (yes)
GCTTTCGAAAGAACAAGC ((((((....)))..))) | 1 (yes)
GCATTGCGAAAGCTATGC ((((.((....)).)))) | 0 (no)
GTTCGCGAAAGCGGAAC ((((((....))).))) | 0 (no)
GTTTGGGAAACCAAAC ((((((....)))))) | 0 (no)
GATAATGAAAATTATC ((((((....)))))) | 1 (yes)
GTAACCGGAAACAGTTAC (((((.(....).))))) | 1 (yes)
GTGGACGGAAACATCCAC (((((.(....).))))) | 1 (yes)
GTGGTCGAAAGACTACAC ((((((....)))..))) | 1 (yes)

###

- Method Description: folding enthalpy; higher = less favourable; fluorescence melt of hairpins on a sequencing array, two-state fit
- Study Conditions: sodium 0.088 M
Assay Endpoint: folding enthalpy (kcal/mol)

Chain | Assay Endpoint | Result Number
GACTCGGAAACGAGTC ((((((....)))))) | folding enthalpy | -32.8
GCACAGCGAAAGCTCAGC ((..(((....)))..)) | folding enthalpy | -10.5
GCGAATGATCGC ((((....)))) | folding enthalpy | -17.7
GCTGCGGCGAAAGCCAGC (((..(((....)))))) | folding enthalpy | -10.7
GGCTACGAAAGTAGCGCC ((((((....)))..))) | folding enthalpy | -9.93
GTGTCGCCGAAAGGCCAC (((..(((....)))))) | folding enthalpy | -15
GTATTCGGAAACGAACAC ((.((((....)))).)) | folding enthalpy | -25.9
GGACAAGGAAACTTGTTC (.(((((....))))).) | folding enthalpy | -25.9
GGCCTGTCGAAAGACGCC (((..(((....)))))) | folding enthalpy | -18.8
CGCGGAACAATCCGCG ((((((....)))))) | folding enthalpy | -37
GAACGCGAAAGCGATTTC ((((((....)))..))) | folding enthalpy | -9.14
GCTCGCGAAAGCGAAAGC ((((((....)))..))) | folding enthalpy | -14.4
GCTACTGGAAACAATAGC ((((.((....)).)))) | folding enthalpy | -18.5
GGTAGGCGAAAGCCGACC (((.(((....))).))) | folding enthalpy | -18.6
GGCGAAACGAAAGTTGCC (((..(((....)))))) | folding enthalpy | -25.5
GGCAACGAAAGTTCGCC ((((((....))).))) | folding enthalpy | -22.9
GTGTAGGGAAACCTGCAC (((.(((....))).))) | folding enthalpy | -29.7
GATCCTTCTTAGGATC ((((((....)))))) | folding enthalpy | -41.8
GCCAGTCGAAAGACCGGC (((.(((....))).))) | folding enthalpy | -36.4
GTCAAGCGAAAGCTAGAC (((.(((....))).))) | folding enthalpy | -25.6
GATGGAGGAAACTCCGTC ((.((((....)))).)) | folding enthalpy | -31.9
GATCGGGCCCCGATC ((((((...)))))) | folding enthalpy | -44.1
GCCTTCGGAAACGAAGAC (.(((((....))))).) | folding enthalpy | -18.4
GCTCCGTCGAAAGACAGC (((..(((....)))))) | folding enthalpy | -15
GATCGGATCCCCGATC ((((((....)))))) | folding enthalpy | -41.4

###

- Method Description: melting temperature; fluorescence melt of hairpins on a sequencing array, two-state fit, raised by 9.35 °C to match UV melts
- Study Conditions: sodium 0.088 M

Chain | Units Symbol | Tm
GGCAGGAAACTGCC (((((....))))) | °C | 65.6
GCTAGACGAAAGTCAGC (((.(((....)))))) | °C | 54.2
GTCCGACGAAAGTCCGAC (((.(((....))).))) | °C | 44
GTCTGCGGAAACGCAGGC (.(((((....))))).) | °C | 63.9
GCGCTACGAAAGTAACGC (((.(((....))).))) | °C | 56.5
GCGTCCATACGC ((((....)))) | °C | 52.7

###

- Method Description: melting temperature; fluorescence melt of hairpins on a sequencing array, two-state fit, raised by 9.35 °C to match UV melts
- Study Conditions: sodium 0.088 M
I'd appreciate it if you marked entries Met when Tm is lower than 50 °C and Not met when it is not.

Chain | Category Label
GGTTCCGAAAGGACCACC ((((((....)))..))) | Met
GGATGAGCGAAAGCTTCC (((..(((....)))))) | Met
GGCCGCGAAAGCGGAGCC ((((((....)))..))) | Not met
GCTATGCGAAAGCCTTGC ((.(.((....)).).)) | Met
GGAACCGAAAGGTGCTCC ((((((....)))..))) | Met
GAACGAGGAAACTTGTTC ((((.((....)).)))) | Met
GATCTCGCAGGAGATC ((((((....)))))) | Not met
GATCCATCCTTGGATC ((((((....)))))) | Not met
GGTCATGGAAACACGACC ((((.((....)).)))) | Met
GGAATAGGAAACTATTCC (((((((....))))))) | Not met
GATCGGCTCCCGATC ((((((...)))))) | Not met
GCTCGCGAAAGCGCCAGC ((((((....)))..))) | Met
GAGAGCGAAAGCTTCCTC ((((((....)))..))) | Met
GATCGGAAGCCCGATC ((((((....)))))) | Not met
GTGGCCGAAAGGCTTCAC ((((((....)))..))) | Met
TCGTTGAAAAACGA (((((....))))) | Met
GGAGGAGGAAACTCTTCC (((.(((....))).))) | Met
GGCTCCGAAAGGAAGGCC ((((((....)))..))) | Not met
GATCGGCCGAAAGGCATC (((..(((....)))))) | Met
GGTAGGGGAAACTCTGCC ((.((.(....).)).)) | Met
GTTCTACGAAAGTAAAC (((.(((....)))))) | Met
GTCGAACGAAAGTTGAC (((.(((....)))))) | Met
GGACACGAAAGTGGTTCC ((((((....)))..))) | Met

###

- Method Description: melting temperature; fluorescence melt of hairpins on a sequencing array, two-state fit, raised by 9.35 °C to match UV melts
- Study Conditions: sodium 0.088 M
Assay Endpoint: Tm (°C)

Chain | Assay Endpoint | Result Number
GCCCTTCCGAAAGGAGGC (((..(((....)))))) | Tm | 41.1
GTAATGGGAAACCATTGC (.(((((....))))).) | Tm | 43.3
GATCGGTTCCCCGATC ((((((....)))))) | Tm | 56.8
GCTTGCCGAAAGGCTAGC (((.(((....))).))) | Tm | 64.4
GGGCACGAAAGTGATCCC ((((((....)))..))) | Tm | 50.3
GAACGCGGAAACGCGTCC (.(((((....))))).) | Tm | 47.8
GTCTGTGGAAACACAAAC ((.((((....)))).)) | Tm | 28.1
GAATGCGGAAACGCACTC ((.((((....)))).)) | Tm | 38.4
GTTCTGGGAAACTAGAGC (.(((.(....).))).) | Tm | 24.9
GCTTGCCGAAAGGCAGC (((.(((....)))))) | Tm | 60.1
GATCATTGGCATGATC ((((((....)))))) | Tm | 45.5
GCGGGAGCCCGC ((((....)))) | Tm | 56

###

Listed here: items and their measured Tm.
- Method Description: melting temperature; fluorescence melt of hairpins on a sequencing array, two-state fit, raised by 9.35 °C to match UV melts
- Study Conditions: sodium 0.088 M
Assay Endpoint: Tm

Chain | Assay Endpoint | Result
GTACGTGGAAACACACAC ((..(((....)))..)) | Tm | 27.4 °C
GCCTCCGAAAGGAAAGGC ((((((....)))..))) | Tm | 53 °C
GGAGTCGAAAGACAGTCC ((((((....)))..))) | Tm | 31.5 °C
GCGCCGCGAAAGCGCTGC ((..(((....)))..)) | Tm | 61.1 °C
GGCTTGTCGAAAGACGCC (((..(((....)))))) | Tm | 49.9 °C
GAACCACGAAAGTGTTTC (((.(((....))).))) | Tm | 37.2 °C
GCGGGTACGAAAGTACGC (((..(((....)))))) | Tm | 51.5 °C
GCTGCCGAAAGGCTGAGC ((((((....)))..))) | Tm | 50.1 °C
GGTTACGCGAAAGCGACC (((..(((....)))))) | Tm | 37.2 °C
GCACACGGAAACGTGCGC ((.((((....)))).)) | Tm | 60.5 °C
GGAGTTGGAAACAACCCC ((.((((....)))).)) | Tm | 43.5 °C
GGTACCGAAAGGTAACC ((((((....))).))) | Tm | 53.4 °C
GTGACCGAAAGGTATCAC ((((((....)))..))) | Tm | 39.7 °C
GTCAGGGGAAACCCCGAC (((.(((....))).))) | Tm | 50.2 °C
GCGTTCGGAAACAAACGC (((((.(....).))))) | Tm | 47.9 °C
GCCACCGAAAGGTGTGGC ((((((....)))..))) | Tm | 58.2 °C
GCTCACCGAAAGGTTAGC (((.(((....))).))) | Tm | 49.9 °C
GTTATACGAAAGTACAAC (((.(((....))).))) | Tm | 33.2 °C
GATCGTCTCTACGATC ((((((....)))))) | Tm | 54.5 °C
GCGACGGGAAACCATCGC ((((.((....)).)))) | Tm | 51.4 °C
GAACCCGAAAGGGGGTTC ((((((....)))..))) | Tm | 56 °C
GGAACGGCGAAAGCCTCC (((..(((....)))))) | Tm | 31.6 °C
GATGTGACGAAAGTCATC (((..(((....)))))) | Tm | 34.2 °C
GAGTCAGAAATGACTC ((((((....)))))) | Tm | 54.6 °C
GTCTCCGAAAGGACGAC ((((((....))).))) | Tm | 46.7 °C
